Target: Aldo-keto reductase family 1 member C3 (Homo sapiens)
Sequence (P42330 whole entry): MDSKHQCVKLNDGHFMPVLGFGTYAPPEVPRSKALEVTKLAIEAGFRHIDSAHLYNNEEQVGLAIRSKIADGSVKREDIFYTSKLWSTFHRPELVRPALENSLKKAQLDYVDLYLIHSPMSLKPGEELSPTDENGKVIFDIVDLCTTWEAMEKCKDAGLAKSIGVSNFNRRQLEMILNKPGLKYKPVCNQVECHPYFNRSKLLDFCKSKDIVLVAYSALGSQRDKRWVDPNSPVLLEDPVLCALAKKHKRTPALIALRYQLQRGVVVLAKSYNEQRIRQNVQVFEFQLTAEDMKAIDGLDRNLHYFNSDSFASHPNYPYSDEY
Test: Inhibition of AKR1C3-mediated androsterone metabolism in human A549 cells assessed as 5alpha-androstane-3alpha, 17beta-diol after 24 hrs by LC/MS analysis
Assay type: cell-based
Readout Type: IC50 (µM)
API: value field is a number in µM; no unit string.

input: Fill in the blank: the reported IC50 of `O=C(O)/C=C/c1ccc(OC(=O)CCc2ccccc2)c(OCc2cccc(O)c2)c1` is ____.
output: 8

---

Target: Aldo-keto reductase family 1 member C3 (Homo sapiens, UniProt P42330)
Sequence (P42330 whole entry): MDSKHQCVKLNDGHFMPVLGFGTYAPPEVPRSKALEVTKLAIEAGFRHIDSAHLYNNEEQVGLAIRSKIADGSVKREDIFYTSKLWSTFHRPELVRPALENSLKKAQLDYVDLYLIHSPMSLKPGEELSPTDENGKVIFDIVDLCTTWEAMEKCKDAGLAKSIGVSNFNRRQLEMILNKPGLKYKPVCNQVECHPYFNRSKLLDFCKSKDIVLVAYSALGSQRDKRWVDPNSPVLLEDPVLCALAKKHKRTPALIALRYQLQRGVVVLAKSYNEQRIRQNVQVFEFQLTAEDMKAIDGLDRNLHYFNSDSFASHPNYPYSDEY
Readout Type: pIC50
# log scale: pIC50 equals minus log10 of the concentration in mol/L

Cc1ccc(COc2cc(/C=C/C(=O)O)ccc2OC(=O)CCc2cccc(O)c2)cc1	6.04
Cc1ccc(COc2cc(/C=C/C(=O)O)ccc2OC(=O)CCc2ccc(F)cc2)cc1	6.33
O=C(O)/C=C/c1ccc(OC(=O)CCc2ccccc2)c(OCc2ccccc2)c1	6.41
O=C(O)/C=C/c1ccc(OC(=O)CCc2ccc(O)cc2)c(OCc2cccc(F)c2)c1	6.08
O=C(O)/C=C/c1ccc(OC(=O)CCc2c(F)cc(F)cc2F)c(OCc2cccc(F)c2)c1	6.24
O=C(O)/C=C/c1ccc(OC(=O)CCc2ccccc2)c(OCc2cccc(O)c2)c1	7.70

Could you now consider this next compound?
input: Fill in the blank: the reported pIC50 of `Cc1ccc(COc2cc(/C=C/C(=O)O)ccc2OC(=O)CCc2ccccc2)cc1` is ____.
output: 6.96

---

Target: Aldo-keto reductase family 1 member C4 (Homo sapiens)
Sequence (P17516 whole entry): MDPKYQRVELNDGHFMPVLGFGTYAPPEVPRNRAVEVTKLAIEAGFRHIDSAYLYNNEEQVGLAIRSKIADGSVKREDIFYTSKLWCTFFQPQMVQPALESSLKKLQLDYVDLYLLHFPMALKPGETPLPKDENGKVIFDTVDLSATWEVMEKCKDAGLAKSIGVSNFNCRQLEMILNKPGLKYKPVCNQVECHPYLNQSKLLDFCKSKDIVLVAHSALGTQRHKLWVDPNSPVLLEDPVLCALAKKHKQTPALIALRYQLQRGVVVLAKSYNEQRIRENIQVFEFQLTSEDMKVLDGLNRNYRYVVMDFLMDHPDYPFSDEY
Readout Type: pIC50
# log scale: pIC50 equals minus log10 of the concentration in mol/L

input: Fill in the blank: the reported pIC50 of `O=C(O)/C=C/c1ccc(OC(=O)CCc2ccccc2)c(OCc2cccc(O)c2)c1` is ____.
output: 4.70

---

Target: Aldo-keto reductase family 1 member C1 (Homo sapiens)
Sequence (Q04828 whole entry): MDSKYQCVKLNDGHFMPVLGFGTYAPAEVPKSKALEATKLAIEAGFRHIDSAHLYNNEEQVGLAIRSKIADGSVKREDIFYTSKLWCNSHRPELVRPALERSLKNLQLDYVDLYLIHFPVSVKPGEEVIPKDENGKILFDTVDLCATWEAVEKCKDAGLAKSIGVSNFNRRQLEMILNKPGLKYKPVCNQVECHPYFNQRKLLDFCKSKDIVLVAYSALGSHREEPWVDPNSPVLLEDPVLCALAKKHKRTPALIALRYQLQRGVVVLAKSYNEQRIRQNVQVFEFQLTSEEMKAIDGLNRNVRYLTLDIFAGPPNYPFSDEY
pIC50: −log10 of the molar value.
Readout Type: pIC50

input: Fill in the blank: the reported pIC50 of `COc1cccc(COc2cc(/C=C/C(=O)O)ccc2OC(=O)CCc2ccccc2)c1` is ____.
output: < 4.00

---

Aldo-keto reductase family 1 member C3 (Homo sapiens, UniProt P42330) measurements of log10(IC50), listed per entry.
Field: value | Transform: log10 | Quantity: IC50 | Unit: nM

input: Fill in the blank: the reported log10(IC50) of `O=C(O)/C=C/c1ccc(OC(=O)CCc2ccccc2)c(OCc2ccccc2F)c1` is ____.
output: 2.51

input: Fill in the blank: the reported log10(IC50) of `CC(C)COc1cc(/C=C/C(=O)O)ccc1OC(=O)CCc1ccccc1` is ____.
output: 2.75

input: Fill in the blank: the reported log10(IC50) of `CCOc1cc(/C=C/C(=O)O)ccc1OC(=O)CCc1ccccc1` is ____.
output: 2.99

input: Fill in the blank: the reported log10(IC50) of `O=C(O)/C=C/c1ccc(OC(=O)CCc2cccc(F)c2)c(OCc2cccc(F)c2)c1` is ____.
output: 2.60

input: Fill in the blank: the reported log10(IC50) of `CCCCOc1cc(/C=C/C(=O)O)ccc1OC(=O)CCc1ccccc1` is ____.
output: 2.62

input: Fill in the blank: the reported log10(IC50) of `O=C(O)/C=C/c1ccc(OC(=O)CCc2ccc(F)cc2)c(OCc2cccc(F)c2)c1` is ____.
output: 2.73

input: Fill in the blank: the reported log10(IC50) of `O=C(O)/C=C/c1ccc(OC(=O)CCc2ccccc2)c(OCc2cc(F)cc(F)c2)c1` is ____.
output: 2.56

---

Molecular target: UniProtKB P42330
pIC50: −log10 of the molar value.
Could you label it True if measured pIC50 is 6 or higher, and False otherwise?

Use these answered entries as a reference point.
CC(C)Oc1cc(/C=C/C(=O)O)ccc1OC(=O)CCc1ccccc1	False
COc1cc(/C=C/C(=O)O)ccc1OC(=O)CCc1ccccc1	False
O=C(O)/C=C/c1ccc(OC(=O)CCc2ccccc2)c(OCCc2ccccc2)c1	True
CCCOc1cc(/C=C/C(=O)O)ccc1OC(=O)CCc1ccccc1	False
O=C(O)/C=C/c1ccc(OC(=O)CCc2ccccc2)c(OCc2ccc(F)cc2)c1	True
Cc1ccc(COc2cc(/C=C/C(=O)O)ccc2OC(=O)CCc2c(F)cc(F)cc2F)cc1	True
Cc1ccc(COc2cc(/C=C/C(=O)O)ccc2OC(=O)CCc2cccc(F)c2)cc1	True

With those in mind, consider the next compound.
input: Could you verify whether the entry `O=C(O)/C=C/c1ccc(OC(=O)CCc2ccccc2)c(OCc2cccc(F)c2)c1` shows pIC50 of no less than 6?
output: True

---

Target: Aldo-keto reductase family 1 member C3 (Homo sapiens)
Readout Type: pIC50
# log scale: pIC50 equals minus log10 of the concentration in mol/L

// below: answered compounds
C/C=C/COc1cc(/C=C/C(=O)O)ccc1OC(=O)CCc1ccccc1	5.96
O=C(O)/C=C/c1ccc(OC(=O)CCc2cccc(O)c2)c(OCc2cccc(F)c2)c1	6.10
O=C(O)/C=C/c1ccc(OC(=O)CCc2ccccc2)c(OCc2ccc(Cl)cc2)c1	6.05
Cc1ccc(COc2cc(/C=C/C(=O)O)ccc2OC(=O)CCc2ccc(O)cc2)cc1	6.11
COc1cccc(COc2cc(/C=C/C(=O)O)ccc2OC(=O)CCc2ccccc2)c1	6.02

input: Fill in the blank: the reported pIC50 of `C=C(C)COc1cc(/C=C/C(=O)O)ccc1OC(=O)CCc1ccccc1` is ____.
output: 6.07
